Origin of the recorded values: ChEMBL document CHEMBL1140467

target: Glucagon-like peptide 1 receptor (Homo sapiens, UniProt P43220); assay: Effect on augmentation of [125]GLP1 binding to human GLP1; conditions: read-out: IC50 (the source's name)
Sequence (P43220 whole entry): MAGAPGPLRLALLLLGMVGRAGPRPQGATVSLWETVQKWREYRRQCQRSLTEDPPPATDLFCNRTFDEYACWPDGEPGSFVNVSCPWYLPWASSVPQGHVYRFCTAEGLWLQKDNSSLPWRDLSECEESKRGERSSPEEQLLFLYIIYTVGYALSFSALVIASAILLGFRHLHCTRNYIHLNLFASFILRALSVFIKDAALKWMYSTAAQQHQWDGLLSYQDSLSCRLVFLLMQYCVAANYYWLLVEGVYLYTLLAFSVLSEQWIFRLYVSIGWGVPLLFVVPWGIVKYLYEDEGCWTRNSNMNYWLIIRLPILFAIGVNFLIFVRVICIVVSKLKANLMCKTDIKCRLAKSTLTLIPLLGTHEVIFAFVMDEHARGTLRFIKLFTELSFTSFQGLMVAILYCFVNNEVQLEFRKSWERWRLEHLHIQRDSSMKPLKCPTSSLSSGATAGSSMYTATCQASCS
Grouping by measured EC50 is done with the following cut points: low band (below 300 nM), middle band (300 nM to below 500 nM), high band (500 nM or more)

INSERT INTO measurements (compound, grouplabel) VALUES
  ('CC(C)c1nc2cc(Cl)c(Cl)cc2nc1S(=O)(=O)CCC1OCCO1', 'high band'),
  ('CCNc1nc2cc(Cl)c(Cl)cc2nc1S(C)(=O)=O', 'low band'),
  ('CC(C)c1nc2cc(Cl)c(Cl)cc2nc1S(=O)(=O)Cc1ccc(S(C)(=O)=O)cc1', 'middle band'),
  ('CS(=O)(=O)c1nc2cc(Cl)c(Cl)cc2nc1C(F)(F)F', 'low band'),
  ('CCN(CC)C(=O)c1nc2cc(Cl)c(Cl)cc2nc1C(C)C', 'high band'),
  ('CC(C)c1nc2cc(Cl)c(Cl)cc2nc1[S+](C)[O-] (stereo not drawn)', 'high band'),
  ('CC(C)N(C)c1nc2cc(Cl)c(Cl)cc2nc1S(C)(=O)=O', 'middle band'),
  ('CC(C)c1nc2cc(Cl)c(Cl)cc2nc1S(C)(=O)=O', 'low band'),
  ('CCOC(=O)c1nc2cc(Cl)c(Cl)cc2nc1S(C)(=O)=O', 'high band'),
  ('CN(C)c1nc2cc(Cl)c(Cl)cc2nc1S(C)(=O)=O', 'high band'),
  ('CCCc1nc2cc(Cl)c(Cl)cc2nc1S(C)(=O)=O', 'middle band'),
  ('CC(C)Nc1nc2cc(Cl)c(Cl)cc2nc1S(C)(=O)=O', 'low band'),
  ('CC(C)C(=O)c1nc2cc(Cl)c(Cl)cc2nc1C(C)C', 'high band');

* * *

molecular target: Glucagon-like peptide 1 receptor (Homo sapiens, UniProt P43220); assay: Agonist activity at human GLP1 assessed as stimulation of cAMP relative to cAMP; format: functional
Consider the following compounds and their measured Emax readings.
readoutLabel: Emax (%)

INSERT INTO assay_data (compound, censoringoperator, readoutvalue) VALUES
  ('CCOP(=O)(OCC)c1nc2cc(Cl)c(Cl)cc2nc1C(F)(F)F', '<', 2),
  ('CS(=O)(=O)c1nc2cc(Cl)c(Cl)cc2nc1C(F)(F)F', '=', 40),
  ('Cc1nnc([S+]([O-])c2nc3cc(Cl)c(Cl)cc3nc2C(C)C)s1 (stereo not given)', '=', 19),
  ('CCC(C)Nc1nc2cc(Cl)c(Cl)cc2nc1S(C)(=O)=O (stereo not given)', '=', 94),
  ('CCCc1nc2cc(OC)c(OC)cc2nc1S(C)(=O)=O', '<', 2);

* * *

Listed here are compounds together with their documented Emax.
target: Glucagon-like peptide 1 receptor (Homo sapiens); test: Agonist activity at human GLP1 assessed as stimulation of cAMP relative to cAMP; assay type: functional
readoutLabel: Emax

INSERT INTO assay_data (compound, systemtested, readoutvalue) VALUES
  ('CON(C)c1nc2cc(Cl)c(Cl)cc2nc1S(C)(=O)=O', 'Glucagon-like peptide 1 receptor (Homo sapiens)', '52%'),
  ('CC(=O)NNc1nc2cc(Cl)c(Cl)cc2nc1S(C)(=O)=O', 'Glucagon-like peptide 1 receptor (Homo sapiens)', '32%'),
  ('Nc1nc2cc(Cl)c(Cl)cc2nc1C(F)(F)F', 'Glucagon-like peptide 1 receptor (Homo sapiens)', '< 2%'),
  ('CC(C)C(=O)c1nc2cc(Cl)c(Cl)cc2nc1C(C)C', 'Glucagon-like peptide 1 receptor (Homo sapiens)', '< 2%'),
  ('COC(=O)CCNS(=O)(=O)c1ccc(CS(=O)(=O)c2nc3cc(Cl)c(Cl)cc3nc2C(C)C)cc1', 'Glucagon-like peptide 1 receptor (Homo sapiens)', '65%'),
  ('CS(=O)(=O)c1nc2cc(Cl)c(Cl)cc2nc1NC1CCS(=O)(=O)C1 (stereo not drawn)', 'Glucagon-like peptide 1 receptor (Homo sapiens)', '43%'),
  ('CS(=O)(=O)c1nc2cc(Cl)c(Cl)cc2nc1N1CCCC1', 'Glucagon-like peptide 1 receptor (Homo sapiens)', '72%'),
  ('N#Cc1nc2cc(Cl)c(Cl)cc2nc1C(F)(F)F', 'Glucagon-like peptide 1 receptor (Homo sapiens)', '< 2%'),
  ('CC(C)Nc1nc2c([N+](=O)[O-])c(Cl)c(Cl)cc2nc1S(C)(=O)=O', 'Glucagon-like peptide 1 receptor (Homo sapiens)', '38%'),
  ('CCCc1nc2cc(Cl)c(Cl)cc2nc1S(C)(=O)=O', 'Glucagon-like peptide 1 receptor (Homo sapiens)', '68%'),
  ('CC(C)Sc1nc2cc(Cl)c(Cl)cc2nc1S(C)(=O)=O', 'Glucagon-like peptide 1 receptor (Homo sapiens)', '46%'),
  ('CC(=O)NCCNc1nc2cc(Cl)c(Cl)cc2nc1S(C)(=O)=O', 'Glucagon-like peptide 1 receptor (Homo sapiens)', '22%'),
  ('CC(C)c1nc2cc(Cl)c(Cl)cc2nc1S(=O)(=O)CCC1OCCO1', 'Glucagon-like peptide 1 receptor (Homo sapiens)', '71%'),
  ('CS(=O)(=O)c1nc2cc(Cl)c(Cl)cc2nc1N1CCC(=O)N1', 'Glucagon-like peptide 1 receptor (Homo sapiens)', '38%'),
  ('CS(=O)(=O)c1nc2cc(Cl)c(Cl)cc2nc1N', 'Glucagon-like peptide 1 receptor (Homo sapiens)', '24%'),
  ('CC(C)c1nc2cc(Cl)c(Cl)cc2nc1S(=O)(=O)Cc1ccc(S(=O)(=O)CC2CC2)cc1', 'Glucagon-like peptide 1 receptor (Homo sapiens)', '64%'),
  ('CC(C)Nc1nc2cc(Cl)c(Cl)cc2nc1S(C)(=O)=O', 'Glucagon-like peptide 1 receptor (Homo sapiens)', '82%'),
  ('CC(C)(C)Nc1nc2cc(Cl)c(Cl)cc2nc1S(C)(=O)=O', 'Glucagon-like peptide 1 receptor (Homo sapiens)', '85%'),
  ('CN(C)c1nc2cc(Cl)c(Cl)cc2nc1S(C)(=O)=O', 'Glucagon-like peptide 1 receptor (Homo sapiens)', '47%'),
  ('CC(C)c1nc2cc(Cl)c(Cl)cc2nc1O', 'Glucagon-like peptide 1 receptor (Homo sapiens)', '< 2%'),
  ('CCNc1nc2cc(Cl)c(Cl)cc2nc1S(C)(=O)=O', 'Glucagon-like peptide 1 receptor (Homo sapiens)', '46%'),
  ('CCOC(=O)c1nc2cc(Cl)c(Cl)cc2nc1C(F)(F)F', 'Glucagon-like peptide 1 receptor (Homo sapiens)', '< 2%'),
  ('CC(C)N(C)c1nc2cc(Cl)c(Cl)cc2nc1S(C)(=O)=O', 'Glucagon-like peptide 1 receptor (Homo sapiens)', '75%');
